# Assay Explanation: inhibitors of TNF-alpha triggered necroptosis, primary screen, cell-based, Jurkat FADD-/-, single concentration (AID 463075);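 further: necroptosis triggered by 40 ng/mL TNF-alpha added together with compound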
# Reported Conditions: Jurkat FADD-/- TNF necroptosis rescue, ATP luminescence, 24 h; at 10 µM; stronger effect = higher value; 0 = TNF only, 100 = no-TNF cells
In all, about 220,000 compounds went through this assay and about 150 (0.068%) were called active. The sample holds actives, similar compounds and a random draw of the others, so the mix is not that of the screen.
Observable: activation (protection from cell death) (%)
# value in %; strip the unit string

Query :: Name the recorded activation (protection from cell death) of the compound listed here: O=C1CC(c2ccccc2)C(=O)N1c1cccc(O)c1 (stereo unspecified)
Result :: 52

Query :: Item CCOC(=O)c1c(CC(C)C)csc1/N=C/C1=C(O)CCCC1=O : provide activation (protection from cell death)
Result :: 2.28

Query :: Specify activation (protection from cell death) for C=CCCN(Cc1ccccc1)S(=O)(=O)c1ccccc1Br and stop.
Result :: -2.9

Query :: Determine its reported activation (protection from cell death): CCOc1ccc(NC(=O)C2CC(=O)N=C(N)S2)cc1 (stereo unspecified)
Result :: 0.442

Query :: Tell us which activation (protection from cell death) value is on record for CCCCN(C)CCNC(=O)CSCc1ccc(C)cc1
Result :: 1.41

Query :: Hello, please tell me recorded activation (protection from cell death) for this one: O=C(CS(=O)(=O)c1ccc(C(F)(F)F)cn1)NNC(=O)c1ccccc1
Result :: -0.488

Query :: Supply reported activation (protection from cell death) belonging to this compound: CCn1cc(C(=O)Nc2cc(C)ccc2C)c(=O)c2ccc(C)nc21
Result :: 0.491

Query :: Name the recorded activation (protection from cell death) of the item CN(C)c1ccc(-n2cccc2/C=N/n2cnnc2)cc1 in your answer.
Result :: 1.75

Query :: Give reported activation (protection from cell death) value for Cc1ccc(S(=O)(=O)/N=C(/NC(=S)Nc2c(C)n(C)n(-c3ccccc3)c2=O)c2ccccc2)cc1
Result :: 0.616

Query :: Answer with the recorded activation (protection from cell death) of CCOC(=O)CNC(=O)N1c2ccccc2Sc2ccccc21 only.
Result :: -1.84

Query :: Give recorded activation (protection from cell death). C=CCNC(=O)c1cc2nc(C3CC3)cc(C(F)F)n2n1
Result :: 0.00242

----------
# Assay Explanation: inhibitors of TNF-alpha triggered necroptosis, primary screen, cell-based, Jurkat FADD-/-, single concentration (AID 463075);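 further: necroptosis triggered by 40 ng/mL TNF-alpha added together with compound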
# Reported Conditions: Jurkat FADD-/- TNF necroptosis rescue, ATP luminescence, 24 h; at 10 µM; 0 = TNF only, 100 = no-TNF cells
The campaign covered roughly 220,000 compounds. About 150 (0.068%) were called active.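 Rule for the calls: active = activation, meaning protection from cell death, of at least 50% relative to plate controls; inactive = activation below 50%.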 The sample as a whole holds a higher share of actives than the screen did.
Return exactly one item of 1.0 = active, 0.0 = inactive

Query :: What was the test verdict on OCC1(CCc2ccccc2)CCN(Cc2ccc3nsnc3c2)CC1 ?
Result :: 0.0

Query :: For CCCC1(C(=O)OC)NC(c2ccco2)C2C(=O)N(C)C(=O)C21 (stereo unspecified) , which call appears in the assay record?
Result :: 0.0

Query :: Write down the call the test reported for this compound. Item: O=C(Nn1cnc2ccccc2c1=O)c1ccc([N+](=O)[O-])cc1Cl
Result :: 0.0

Query :: Returns: the outcome recorded for COC(=O)c1ccc(Cc2ccccc2)o1 in this assay.
Result :: 1.0

Query :: Test call for this compound, please: CC(C)Cc1ccc(C(C)C(=N)N)cc1 (stereo unspecified)
Result :: 0.0

Query :: Assay result, entry O=C(Nc1ccccc1-c1ccccc1)c1cccs1 — outcome?
Result :: 0.0
